System: Penicillium expansum
Experiment: In vitro volatile assay (Example 24)
Format: cell-based
Condition label: 72 h, headspace, 100% control, 3 days at 23 C, read-out: Volatile MIC (mg/L) P. expansum
Protocol: Volatile assay: 12-well (6.5 mL volume per well) microtiter plates are used. A 3-mL volume of half strength PDA is added to each well. […] A Whatman #1 filter disk (Cat. No. 1001-0155) is placed, in duplicate, on the underside of a polyethylene PCR plate sealing film. […] The acetone is permitted to evaporate for 5 minutes. The headspace around the inoculum is then sealed inside the well by the film with the adhering disk containing the fungicide. […]
Measurement kind: MIC (mg/L)

[[record]]
compound = "OB1OCc2cc(Cl)ccc21 [Compound 124]"
measured_target = "Penicillium expansum"
measurement_kind = "MIC"
readout_relation = "="
numeric_readout = 8.9

[[record]]
compound = "N#C[B-]1(O)OCc2cc(F)ccc21.[Na+] (stereo not drawn) [Compound 132]"
measured_target = "Penicillium expansum"
measurement_kind = "MIC"
readout_relation = "="
numeric_readout = 4.5

[[record]]
compound = "COB1OCc2ccccc21 [Compound 6]"
measured_target = "Penicillium expansum"
measurement_kind = "MIC"
readout_relation = "="
numeric_readout = 17.9

[[record]]
compound = "COc1ccc(B2OCc3cc(F)ccc32)cc1 [Compound 135]"
measured_target = "Penicillium expansum"
measurement_kind = "MIC"
readout_relation = ">"
numeric_readout = 35.7

[[record]]
compound = "Fc1ccc2c(c1)COB2OCCOB1OCc2cc(F)ccc21 [Compound B]"
measured_target = "Penicillium expansum"
measurement_kind = "MIC"
readout_relation = "="
numeric_readout = 8.9

[[record]]
compound = "O[B@@-]1([NH2+]Cc2ccccc2)OCc2ccccc21 [Compound 121]"
measured_target = "Penicillium expansum"
measurement_kind = "MIC"
readout_relation = "="
numeric_readout = 17.9

[[record]]
compound = "OB1OCc2cc(F)ccc21 [Compound A]"
measured_target = "Penicillium expansum"
measurement_kind = "MIC"
readout_relation = "="
numeric_readout = 2.2

[[record]]
compound = "CC(COB1OCc2cc(F)ccc21)OB1OCc2cc(F)ccc21 (stereo not drawn) [Compound 31]"
measured_target = "Penicillium expansum"
measurement_kind = "MIC"
readout_relation = "="
numeric_readout = 8.9

[[record]]
compound = "NCCOB1OCc2cc(F)ccc21 [Compound 34]"
measured_target = "Penicillium expansum"
measurement_kind = "MIC"
readout_relation = "="
numeric_readout = 2.2


---

System: Alternaria alternata
Experiment: Volatile MIC assay (Example 9)
Assay type: cell-based
Condition label: 72 h, headspace concentration, 3 days at 23 C, read-out: MIC (mg/L) ALTEAL
Measurement kind: MIC (mg/L)

[[record]]
test_smiles = "COB1OCc2ccccc21"
measurement_kind = "MIC"
readout_relation = "="
numeric_readout = 4.5

[[record]]
test_smiles = "OB1OCc2cc(Cl)ccc21"
measurement_kind = "MIC"
readout_relation = "="
numeric_readout = 16.1

[[record]]
test_smiles = "OB1OCc2cc(F)ccc21"
measurement_kind = "MIC"
readout_relation = "<"
numeric_readout = 0.6

[[record]]
test_smiles = "CC(C)OB1OCc2ccccc21"
measurement_kind = "MIC"
readout_relation = "="
numeric_readout = 8.9

[[record]]
test_smiles = "COCCOB1OCc2ccccc21"
measurement_kind = "MIC"
readout_relation = "="
numeric_readout = 8.9

[[record]]
test_smiles = "OB1OCc2ccc(F)cc21"
measurement_kind = "MIC"
readout_relation = "="
numeric_readout = 7.3

[[record]]
test_smiles = "COCCCOB1OCc2ccccc21"
measurement_kind = "MIC"
readout_relation = "="
numeric_readout = 8.9

[[record]]
test_smiles = "NCCOB1OCc2cc(F)ccc21"
measurement_kind = "MIC"
readout_relation = "="
numeric_readout = 2.2

[[record]]
test_smiles = "CCCCOB1OCc2cc(F)ccc21"
measurement_kind = "MIC"
readout_relation = "="
numeric_readout = 2.2


---

System: Penicillium expansum
Experiment: Blue mold on apple and pear, contact assay (Example 25)
Type: in vivo
Condition label: Contact (dip); rate not given; day 3 at 21 C after 5 days at 1 C
Binary call on Pear Sporulation (mm) with cut-off 2 mm: strictly below means True, and equality or higher means False.

[[record]]
molecule = "C=CCOC(Cn1ccnc1)c1ccc(Cl)cc1Cl (stereo not drawn)"
class_label = "True"

[[record]]
molecule = "Cc1cc(C)nc(Nc2ccccc2)n1"
class_label = "False"

[[record]]
molecule = "c1ccc2[nH]c(-c3cscn3)nc2c1"
class_label = "False"

[[record]]
molecule = "N#Cc1c[nH]cc1-c1cccc2c1OC(F)(F)O2"
class_label = "True"

[[record]]
molecule = "O=C(Nc1ccccc1-c1ccc(Cl)cc1)c1cccnc1Cl"
class_label = "False"

[[record]]
molecule = "OB1OCc2cc(F)ccc21"
class_label = "False"


---

System: Trichophyton rubrum
Experiment: In vitro contact assay (Example 26)
Assay type: cell-based
Condition label: Trichophyton rubrum, 120 h, 5 days at 28 C, 100% control, read-out: MIC (mg/L) Trichophyton rubrum
Measurement kind: MIC (mg/L)

[[record]]
compound = "Nc1nc(=O)[nH]cc1F"
measured_target = "Trichophyton rubrum"
measurement_kind = "MIC"
unit_annotation = "mg/L"
readout_relation = ">"
numeric_readout = 50

[[record]]
compound = "CCC(C)n1ncn(-c2ccc(N3CCN(c4ccc(OCC5COC(Cn6cncn6)(c6ccc(Cl)cc6Cl)O5)cc4)CC3)cc2)c1=O (centres unmarked)"
measured_target = "Trichophyton rubrum"
measurement_kind = "MIC"
unit_annotation = "mg/L"
readout_relation = ">"
numeric_readout = 50

[[record]]
compound = "CC(COB1OCc2cc(F)ccc21)OB1OCc2cc(F)ccc21 (centres unmarked)"
measured_target = "Trichophyton rubrum"
measurement_kind = "MIC"
unit_annotation = "mg/L"
readout_relation = "="
numeric_readout = 10

[[record]]
compound = "OB1OCc2cc(F)ccc21"
measured_target = "Trichophyton rubrum"
measurement_kind = "MIC"
unit_annotation = "mg/L"
readout_relation = "="
numeric_readout = 2

[[record]]
compound = "OC(Cn1cncn1)(Cn1cncn1)c1ccc(F)cc1F"
measured_target = "Trichophyton rubrum"
measurement_kind = "MIC"
unit_annotation = "mg/L"
readout_relation = "="
numeric_readout = 50


---

System: Penicillium digitatum
Experiment: Green mold on orange, volatile assay (Example 25)
Format: in vivo
Condition label: 50 mg/L, day 3 at 21 C after 5 days at 1 C
Measurement kind: Orange Sporulation (mm)

[[record]]
compound = "N#Cc1c[nH]cc1-c1cccc2c1OC(F)(F)O2"
measured_target = "Penicillium digitatum"
measurement_kind = "Orange Sporulation (mm)"
readout_relation = "="
numeric_readout = 40.8

[[record]]
compound = "OB1OCc2cc(F)ccc21"
measured_target = "Penicillium digitatum"
measurement_kind = "Orange Sporulation (mm)"
readout_relation = "="
numeric_readout = 0.0

[[record]]
compound = "c1ccc2[nH]c(-c3cscn3)nc2c1"
measured_target = "Penicillium digitatum"
measurement_kind = "Orange Sporulation (mm)"
readout_relation = ">"
numeric_readout = 50

[[record]]
compound = "O=C(Nc1ccccc1-c1ccc(Cl)cc1)c1cccnc1Cl"
measured_target = "Penicillium digitatum"
measurement_kind = "Orange Sporulation (mm)"
readout_relation = "="
numeric_readout = 30.3

[[record]]
compound = "C=CCOC(Cn1ccnc1)c1ccc(Cl)cc1Cl (stereo not drawn)"
measured_target = "Penicillium digitatum"
measurement_kind = "Orange Sporulation (mm)"
readout_relation = "="
numeric_readout = 41.4

[[record]]
compound = "Cc1cc(C)nc(Nc2ccccc2)n1"
measured_target = "Penicillium digitatum"
measurement_kind = "Orange Sporulation (mm)"
readout_relation = "="
numeric_readout = 22.3


---

Test system: Epidermophyton floccus
Experiment: In vitro contact assay (Example 26)
Type: cell-based
Condition label: Epidermophyton, 120 h, 5 days at 28 C, 100% control, read-out: MIC (mg/L) Epidermophyton floccus
Examples of molecules with documented MIC follow.
Measurement kind: MIC (mg/L)

[[record]]
molecule = "OB1OCc2cc(F)ccc21 [Compound A]"
unit_annotation = "mg/L"
readout_relation = "="
numeric_readout = 2

[[record]]
molecule = "CCC(C)n1ncn(-c2ccc(N3CCN(c4ccc(OCC5COC(Cn6cncn6)(c6ccc(Cl)cc6Cl)O5)cc4)CC3)cc2)c1=O (stereo not shown) [Itraconazole]"
unit_annotation = "mg/L"
readout_relation = ">"
numeric_readout = 50

[[record]]
molecule = "OC(Cn1cncn1)(Cn1cncn1)c1ccc(F)cc1F [Fluconazole]"
unit_annotation = "mg/L"
readout_relation = "="
numeric_readout = 10

[[record]]
molecule = "Nc1nc(=O)[nH]cc1F [5-Fluorocytosine, 5-fluorocytosine]"
unit_annotation = "mg/L"
readout_relation = ">"
numeric_readout = 50


---

Tested on: B. cinerea
Experiment: In vitro contact assay, amended agar (Example 24)
Assay type: cell-based
Condition label: Botrytis cinerea, 72 h; amended agar; 100% control; 3 days at 23 C; read-out: Contact MIC (mg/L) B. cinerea
Measurement kind: MIC (mg/L)

[[record]]
compound = "COB1OCc2ccccc21 [Compound 6]"
readout_relation = "="
numeric_readout = 2

[[record]]
compound = "O[B@@-]1([NH2+]Cc2ccccc2)OCc2ccccc21 [Compound 121]"
readout_relation = "="
numeric_readout = 10

[[record]]
compound = "N#C[B-]1(O)OCc2cc(F)ccc21.[Na+] (stereo not drawn) [Compound 132]"
readout_relation = "="
numeric_readout = 2

[[record]]
compound = "COc1ccc(B2OCc3cc(F)ccc32)cc1 [Compound 135]"
readout_relation = "="
numeric_readout = 2

[[record]]
compound = "OB1OCc2cc(F)ccc21 [Compound A]"
readout_relation = "<"
numeric_readout = 0.08

[[record]]
compound = "CC(COB1OCc2cc(F)ccc21)OB1OCc2cc(F)ccc21 (stereo not drawn) [Compound 31]"
readout_relation = "="
numeric_readout = 0.4

[[record]]
compound = "Fc1ccc2c(c1)COB2OCCOB1OCc2cc(F)ccc21 [Compound B]"
readout_relation = "="
numeric_readout = 0.4

[[record]]
compound = "NCCOB1OCc2cc(F)ccc21 [Compound 34]"
readout_relation = "="
numeric_readout = 2

[[record]]
compound = "OB1OCc2cc(Cl)ccc21 [Compound 124]"
readout_relation = "="
numeric_readout = 2

